Measured cell viability by item
System: SEM cells
assayComment: cell viability relative to DMSO control; higher = less cytotoxic
testConditions: HPLM + 10% dialyzed FBS; 48 h; 0.0632 µM
Please respond with the number in % and leave the unit unwritten.

Answered examples (8):
compound | reportedProperty | unitsText | observedMeasurement
CCNC(=O)Nc1ccc(Oc2ncnc(N)c2/C=N/OC)cc1Cl | cell viability | % | 110
CN(C)CCCC1(c2ccc(F)cc2)OCc2cc(C#N)ccc21 (stereo not given) | cell viability | % | 100
CO[C@@H](C(=O)N1Cc2[nH]nc(NC(=O)c3ccc(N4CCN(C)CC4)cc3)c2C1)c1ccccc1 | cell viability | % | 71.1
CCNC(=O)CCC/C=C\C[C@@H]1[C@@H](/C=C/C(O)CCc2ccccc2)[C@@H](O)C[C@@H]1O (stereo not given in full) | cell viability | % | 115
O=C1NC(=O)/C(=C/c2ccc3nccnc3c2)S1 | cell viability | % | 120
CC(=O)SC[C@@H](C)C(=O)N1CCC[C@H]1C(=O)N[C@@H](Cc1ccccc1)C(=O)O | cell viability | % | 115
O=C(O)c1cc(O)c2c(c1)C(=O)c1cccc(O)c1C2=O | cell viability | % | 110
Nc1ccc(C(=O)Nc2cccc(-c3nc(N4CCOCC4)c4oc5ncccc5c4n3)c2)cn1 | cell viability | % | 115

Give the reported value of cell viability for this record: CCCCc1ccc2[nH]c(NC(=O)OC)nc2c1 72.3

Give the reported value of cell viability for this record: Oc1ccc(OCc2ccccc2)cc1 20.8
